Values from paper PMC6324813

Overview of reported activation at 1 µM across a group of compounds:
Tested on: Ishikawa cells
Test: Induction of AlkP expression in Ishikawa cells
Type: cell-based, human
Conditions: Homo sapiens, Ishikawa, 72 h; read-out: Induction of AlkP expression (Ishikawa cells) Agonism at 1μΜ (% of 0.1nM E2)
Numeric answer only, unit % assumed.

Worked cases, activation at 1 µM given:
O=c1c(-c2ccc(O)cc2)coc2cc(O)ccc12 [Compound 5, daidzein]; 54
O=c1c(-c2ccc(OC3O[C@H](CO)[C@@H](O)[C@H](O)[C@H]3O)cc2)coc2cc(OC3O[C@H](CO)[C@@H](O)[C@H](O)[C@H]3O)cc(O)c12 (stereo partly drawn) [Compound 11, 7,4΄-di-O-glucopyranosylgenistein]; 105

The record that follows has no activation at 1 µM shown yet.
input: What value of activation at 1 µM has been reported for the following compound? O=c1c(-c2ccc(O)cc2)coc2cc(O[C@@H]3O[C@H](CO)[C@@H](O)[C@H](O)[C@H]3O)cc(O)c12 [Compound 12, 7-O-β-D-glucopyranosyl-genistein]
output: 101

###

Target: ERα (Homo sapiens)
Test: ER binding competitor assay (fluorescent estrogen ES2), ERα
Parameters: purchased Invitrogen
Conditions: RBA = (IC50 estradiol/IC50 compound) × 100; ES2 1 nM; estradiol set equal to 100
Lab note - cut at 0.1 for RBAα: 1.0 if strictly below, 0.0 if not.

Illustrative cases are given below, each with its answer.
O=c1c(-c2ccc(O)c(O)c2)coc2c(C3OC(CO)C(O)C(O)C3O)c(O)cc(O)c12 (centres unmarked); 0.0
COc1ccc(-c2coc3c(OC)c(O)ccc3c2=O)cc1; 1.0
COc1cc(-c2coc3c(C4OC(CO)C(O)C(O)C4O)c(O)cc(O)c3c2=O)ccc1O (centres unmarked); 0.0
COc1cc(-c2coc3cc(O)cc(OC)c3c2=O)ccc1O; 0.0

Please examine the following record next.
input: Identify whether the compound COc1cc(O)cc2occ(-c3ccc(O)c(O)c3)c(=O)c12 records RBAα below 0.1.
output: 0.0

###

Molecular target: ERα (Homo sapiens, UniProt P03372)
Sequence (P03372 whole entry): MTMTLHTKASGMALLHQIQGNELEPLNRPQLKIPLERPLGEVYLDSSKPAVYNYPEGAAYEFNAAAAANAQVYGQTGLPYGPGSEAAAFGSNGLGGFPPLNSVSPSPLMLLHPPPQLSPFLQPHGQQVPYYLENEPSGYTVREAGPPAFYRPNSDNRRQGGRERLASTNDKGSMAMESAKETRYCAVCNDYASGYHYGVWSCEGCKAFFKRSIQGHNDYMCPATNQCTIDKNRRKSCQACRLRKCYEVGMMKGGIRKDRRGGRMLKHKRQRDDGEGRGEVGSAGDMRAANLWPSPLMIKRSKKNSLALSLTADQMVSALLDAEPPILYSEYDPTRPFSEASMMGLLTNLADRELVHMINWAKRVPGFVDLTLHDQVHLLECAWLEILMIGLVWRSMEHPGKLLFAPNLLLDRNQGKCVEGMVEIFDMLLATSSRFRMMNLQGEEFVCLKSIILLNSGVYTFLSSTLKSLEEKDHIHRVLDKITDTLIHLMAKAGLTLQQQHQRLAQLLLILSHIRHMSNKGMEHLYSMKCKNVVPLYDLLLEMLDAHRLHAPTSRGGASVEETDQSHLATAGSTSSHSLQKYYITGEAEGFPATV
Assay: ERE-dependent luciferase gene transcription in MCF-7:D5L cells
Assay type: cell-based
Design: MCF-7:D5L cells, a clone of MCF-7 cells stably transfected with an Estrogen Response Element (ERE)-endowed reporter plasmid; endogenous in cells; host or cells: MCF-7:D5L (MCF-7 clone carrying pERE-Gl-Luciferase)
Conditions: concentration required to achieve 50% of the effect of 0.1 nM E2; read-out: Induction of ERE-dependent Luciferase Transcription (MCF-7:D5L cells) EC50E2
Measurement Type: log10 EC50 (log10 of the value in µM)
Transform log10 | Measure EC50 | Unit µM

Worked cases, log10 EC50 given:
COc1cc(-c2coc3cc(O)cc(OC)c3c2=O)ccc1O [Compound 6, 3΄-methoxyisoprunetin]; 0.20
COc1cc(-c2coc3c(C4OC(CO)C(O)C(O)C4O)c(O)cc(O)c3c2=O)ccc1O (stereo not drawn) [Compound 13, 8-C-glucopyranosyl-3΄-O-methylorobol]; 0.53
O=c1c(-c2ccc(OC3O[C@H](CO)[C@@H](O)[C@H](O)[C@H]3O)cc2)coc2cc(OC3O[C@H](CO)[C@@H](O)[C@H](O)[C@H]3O)cc(O)c12 (stereo partly drawn) [Compound 11, 7,4΄-di-O-glucopyranosylgenistein]; -0.82

input: What value of log10 EC50 has been reported for the following compound? COc1cc(O)cc2occ(-c3ccc(O)c(O)c3)c(=O)c12 [Compound 7, 5-O-methylorobol]
output: 0.98

input: Also COc1ccc(-c2coc3cc(O)cc(O)c3c2=O)cc1 [Compound 1, Biochanin A] ?
output: -0.52

input: Also COc1cc(O)cc2occ(-c3ccc(O)cc3)c(=O)c12 [Compound 4, isoprunetin] ?
output: 0.86

input: Also COc1cc(OC2OC(CO)C(O)C(O)C2O)cc2occ(-c3ccc(O)cc3)c(=O)c12 (stereo not drawn) [Compound 10, 7-O-glucopyranosyl-isoprunetin] ?
output: 1.47
